Field: melting point. Provide a value for each of the compounds that follow.
Give a bare numeral; the unit °C is implied.

## Input Please give measured melting point of the following entry: `BrC(Br)(Br)c1ccc2ccccc2n1`
## Output 128

## Input Item `N=c1oc2ccccc2cc1CSN` : provide melting point
## Output 165

## Input # return recorded melting point for input `COc1ccc(-c2csc(/C(C#N)=C\c3ccco3)n2)cc1`
## Output 115

## Input Give me measured melting point, please, for this compound: `Cc1cc(N)ccc1N`
## Output 64

## Input Return melting point (reported value) for this compound: CC1=CC2OC3C(O)CC(C)(C34CO4)C2(CO)C(O)C1=O (stereo unspecified)
## Output 152

## Input Given O=C(O)CC1C=CCC1 (stereo unspecified) , respond with its melting point.
## Output 19

## Input Tell us which melting point value is on record for `C=CCOCC(CC)(CO)CO`
## Output -10

## Input # return recorded melting point for input `CC1(C)OC(=O)C2(CC2)C(=O)O1`
## Output 65

## Input Look up and report measured melting point for this entry: `NC(=S)c1ccncc1`
## Output 201

Sourced from a melting point compilation (Tetko et al.)
